These data points were gathered from ChEMBL document CHEMBL1250505.

system: Mus musculus; experiment: Analgesic activity in albino mouse assessed as paw licking latency at 100 mg/kg after 1 hr by Eddy's hot plate method; format: functional
Exercise: state measured Time for each of the molecules provided.
# unit: s | format: bare number

// Input: N#CCCCSc1nnc(-c2cccc(-c3cccc(Cl)c3)c2)o1 . Output its Time only.
4.77

Give the measured Time for COc1ccc(F)cc1-c1cccc(-c2nnc(SCCCCF)o2)c1
4.48

Supply measured Time of COc1ccc(F)cc1-c1cccc(-c2nnc(SCCCC#N)o2)c1 in your reply.
4.86

Quickly give me recorded Time for S=c1[nH]nc(-c2cccc(-c3cccc(Cl)c3)c2)o1
4.84

Please report Time for the following molecule: COC(=O)CCCSc1nnc(-c2cccc(-c3cccc(Cl)c3)c2)o1
5.36
